# assay system: T1, human oxytocin receptor (hOTR) (human, UniProt P30559 1-389)
# T1 construct: oxytocin receptor, human; in membrane preparations or on cells; constructs are in the Supporting Information; source: HEK293, stably expressing; membrane preparations (radioligand assay); free-floating cells (FACS)
# T1 sequence (looked up): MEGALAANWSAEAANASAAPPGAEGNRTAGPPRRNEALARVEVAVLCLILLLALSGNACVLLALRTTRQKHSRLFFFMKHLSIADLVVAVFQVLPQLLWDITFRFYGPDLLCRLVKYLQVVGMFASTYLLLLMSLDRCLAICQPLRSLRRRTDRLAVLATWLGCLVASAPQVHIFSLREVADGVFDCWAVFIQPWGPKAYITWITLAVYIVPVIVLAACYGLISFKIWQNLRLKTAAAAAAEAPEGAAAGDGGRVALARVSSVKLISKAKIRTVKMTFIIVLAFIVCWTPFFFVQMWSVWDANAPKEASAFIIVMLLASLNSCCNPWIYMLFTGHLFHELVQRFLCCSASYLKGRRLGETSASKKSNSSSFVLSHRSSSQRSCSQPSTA
# method description: radioligand binding; displacement of [3H]-OT or [3H]-VP from membrane preparations of HEK293 cells stably expressing the human receptor; dose-response curves in duplicates, at least three independent experiments; Ki >10 µM assigned where <25% of the radioligand was displaced at 10 µM
# assay context: one partner purified
Positions of bridges follow the written chain, without caps; N, C: chain ends. Non-standard residues stand in square brackets, D forms with d. Groups on a side chain read outwards from the residue. Primed or numbered codes have the meaning given here. No end group written: not given here. εdLys = D-Lys linked through its epsilon amine (k^ε); PEG5′ = PEG5 spacer, as named in the construct; Cy3s = Cy3s fluorophore, as named; Cy5s = Cy5s fluorophore, as named; Orn = NCCC[C@H](N)C(=O)O; Mpa = O=C(O)CCS

binder: [Mpa]YIQNCP[Orn]([PEG5′-εdLys-Cy3s])G (disulfide 1-6) [d(Orn)^8OT‐[PEG5‐k^ε‐Cy3s]^8]
op: =
Ki [nM]: 1.4

binder: [Mpa]YIQNCP[Orn]([PEG5′-εdLys-Cy5s])G (disulfide 1-6) [d(Orn)^8OT‐[PEG5‐k^ε‐Cy5s]^8]
op: =
Ki [nM]: 1.2

binder: [Mpa]YIQNCP[Orn]([dD-PEG5′-εdLys-TAMRA])G (disulfide 1-6) [d(Orn)^8OT‐[d‐PEG5‐k^ε‐TAMRA]^8]
op: =
Ki [nM]: 7.5

binder: [Mpa]YIQNCP[Orn]([PEG5′-Cy5s])G (disulfide 1-6) [d(Orn)^8OT‐[PEG5‐Cy5s]^8]
op: =
Ki [nM]: 1.3

binder: [Mpa]YIQNCP[Orn](Cy5s)G (disulfide 1-6) [d(Orn)^8OT‐[Cy5s]^8]
op: =
Ki [nM]: 0.9

binder: [Mpa]INYQCP[Orn]([dD-PEG5′-εdLys-Cy3s])G (disulfide 1-6 (inferred)) [scrambled cyclic tracer dCINYQCP(Orn)G‐[d‐PEG5‐k^ε‐Cy3s]^8]
op: >
Ki [nM]: 10000
